Attribution: patent US20250326771A1

Catalogue of compounds with associated IC50
Target: cIAP1-BIR2 (Homo sapiens (Human), UniProt Q13490)
Sequence (Q13490 173-257): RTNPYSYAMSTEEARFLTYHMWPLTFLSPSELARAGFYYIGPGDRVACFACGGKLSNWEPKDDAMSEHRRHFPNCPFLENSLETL
Experiment: BIR binding assay (FRET competition), cIAP1 BIR2

| COMPOUND | IC50 |
| --- | --- |
| C[C@@H]1CN(CC(=O)N2CC(C)(C)c3[nH]c(=O)c(Cc4ccc(F)cc4)cc32)[C@@H](CN2CCO[C@H](C(=O)NCC3CCN(C(=O)[C@@H]4CN(C[C@H]5CN[C@H](C)CN5CC(=O)N5CC(C)(C)c6[nH]c(=O)c(Cc7ccc(F)cc7)cc65)CCO4)CC3)C2)CN1 [Compound 133] | 1 to 3.16 µM |
| C[C@@H]1CN(CC(=O)N2CC(C)(C)c3[nH]c(=O)c(Cc4ccc(F)cc4)cc32)[C@@H](CN2CCC(CNC(=O)Cc3ccc(CC(=O)NCC4CCN(C[C@H]5CN[C@H](C)CN5CC(=O)N5CC(C)(C)c6[nH]c(=O)c(Cc7ccc(F)cc7)cc65)CC4)cc3)CC2)CN1 [Example 102] | 3.16 to 10 µM |

###

Molecular target: cIAP1-BIR3 (Homo sapiens (Human))
Assay: BIR binding assay (FRET competition), cIAP1 BIR3
MEASURE NAME: IC50

| MOLECULE | TESTED TARGET | OBSERVED RESULT |
| --- | --- | --- |
| C[C@@H]1CN(CC(=O)N2CC(C)(C)c3[nH]c(=O)c(Cc4ccc(F)cc4)cc32)[C@@H](CN2CCO[C@H](COCc3cccc(COC[C@@H]4CN(C[C@H]5CN[C@H](C)CN5CC(=O)N5CC(C)(C)c6[nH]c(=O)c(Cc7ccc(F)cc7)cc65)CCO4)c3)C2)CN1 [Example 80] | cIAP1-BIR3 (Homo sapiens (Human)) | 1.38 to 7.94 nM |
| C[C@@H]1CN(CC(=O)N2CC(C)(C)c3[nH]c(=O)c(Cc4ccc(F)cc4)cc32)[C@@H](CN2CCO[C@H](C(=O)NCC(O)CNC(=O)[C@@H]3CN(C[C@H]4CN[C@H](C)CN4CC(=O)N4CC(C)(C)c5[nH]c(=O)c(Cc6ccc(F)cc6)cc54)CCO3)C2)CN1 [Compound 137] | cIAP1-BIR3 (Homo sapiens (Human)) | 7.94 to 15.8 nM |
| C[C@@H]1CN(CC(=O)N2CC(C)(C)c3[nH]c(=O)c(Cc4ccc(F)cc4)cc32)[C@@H](CN2CCC(CN(C)Cc3ccc(CN(C)CC4CCN(C[C@H]5CN[C@H](C)CN5CC(=O)N5CC(C)(C)c6[nH]c(=O)c(Cc7ccc(F)cc7)cc65)CC4)cc3)CC2)CN1 [Example 100] | cIAP1-BIR3 (Homo sapiens (Human)) | 7.94 to 15.8 nM |
| C[C@@H]1CN(CC(=O)N2CC(C)(C)c3[nH]c(=O)c(Cc4ccc(F)cc4)cc32)[C@@H](CN2CCO[C@@H](COc3cccc(OC[C@H]4CN(C[C@H]5CN[C@H](C)CN5CC(=O)N5CC(C)(C)c6[nH]c(=O)c(Cc7ccc(F)cc7)cc65)CCO4)c3)C2)CN1 [Example 112] | cIAP1-BIR3 (Homo sapiens (Human)) | 7.94 to 15.8 nM |
| C[C@@H]1CN(CC(=O)N2CC(C)(C)c3[nH]c(=O)c(Cc4ccc(F)cc4)cc32)[C@@H](CN2CCO[C@H](C(=O)NCCOCCNC(=O)[C@@H]3CN(C[C@H]4CN[C@H](C)CN4CC(=O)N4CC(C)(C)c5[nH]c(=O)c(Cc6ccc(F)cc6)cc54)CCO3)C2)CN1 [Compound 138] | cIAP1-BIR3 (Homo sapiens (Human)) | 1.38 to 7.94 nM |
| C[C@@H]1CN(CC(=O)N2CC(C)(C)c3[nH]c(=O)c(Cc4ccc(F)cc4)cc32)[C@@H](CN2CCC(CN(C)C(=O)c3cccc(C(=O)N(C)CC4CCN(C[C@H]5CN[C@H](C)CN5CC(=O)N5CC(C)(C)c6[nH]c(=O)c(Cc7ccc(F)cc7)cc65)CC4)c3)CC2)CN1 [Example 95] | cIAP1-BIR3 (Homo sapiens (Human)) | 31.6 to 501 nM |
| C[C@@H]1CN(CC(=O)N2CC(C)(C)c3[nH]c(=O)c(Cc4ccc(F)cc4)cc32)[C@@H](CN2CCO[C@H](COc3ccccc3Cc3ccccc3OC[C@@H]3CN(C[C@H]4CN[C@H](C)CN4CC(=O)N4CC(C)(C)c5[nH]c(=O)c(Cc6ccc(F)cc6)cc54)CCO3)C2)CN1 [Example 66] | cIAP1-BIR3 (Homo sapiens (Human)) | 15.8 to 31.6 nM |

###

Measured IC50 accompanies every entry in the list below.
Biological target: cIAP1-BIR3 (Homo sapiens (Human))
Test: BIR binding assay (FRET competition), cIAP1 BIR3
MEASURE NAME: IC50

| MOLECULE | MEASURE NAME | OBSERVED RESULT |
| --- | --- | --- |
| C[C@@H]1CN(CC(=O)N2CC(C)(C)c3[nH]c(=O)c(Cc4ccc(F)cc4)cc32)[C@@H](CN2CCO[C@H](C(=O)NCCCC(=O)N3CCN(C[C@H]4CN[C@H](C)CN4CC(=O)N4CC(C)(C)c5[nH]c(=O)c(Cc6ccc(F)cc6)cc54)[C@H](C)C3)C2)CN1 [Compound 160] | IC50 | 0.00794 to 0.0158 µM |
| C[C@@H]1CN(CC(=O)N2CC(C)(C)c3[nH]c(=O)c(Cc4ccc(F)cc4)cc32)[C@@H](CN2CCN(C(=O)c3cccnc3-c3ncccc3C(=O)N3CCN(C[C@H]4CN[C@H](C)CN4CC(=O)N4CC(C)(C)c5[nH]c(=O)c(Cc6ccc(F)cc6)cc54)[C@H](C)C3)C[C@H]2C)CN1 [Example 17] | IC50 | 0.00138 to 0.00794 µM |
| C[C@@H]1CN(CC(=O)N2CC(C)(C)c3[nH]c(=O)c(Cc4ccc(F)cc4)cc32)[C@@H](CN2CCO[C@H](COc3ccc(Cc4ccc(OC[C@@H]5CN(C[C@H]6CN[C@H](C)CN6CC(=O)N6CC(C)(C)c7[nH]c(=O)c(Cc8ccc(F)cc8)cc76)CCO5)cc4)cc3)C2)CN1 [Example 53] | IC50 | 0.0316 to 0.501 µM |
| C[C@@H]1CN(CC(=O)N2CC(C)(C)c3[nH]c(=O)c(Cc4ccc(F)cc4)cc32)[C@@H](CN2CCO[C@H](COc3cc(F)cc(OC[C@@H]4CN(C[C@H]5CN[C@H](C)CN5CC(=O)N5CC(C)(C)c6[nH]c(=O)c(Cc7ccc(F)cc7)cc65)CCO4)c3)C2)CN1 [Example 73] | IC50 | 0.00794 to 0.0158 µM |

###

Target: cIAP1-BIR3 (Homo sapiens (Human), UniProt Q13490)
Sequence (Q13490 253-363): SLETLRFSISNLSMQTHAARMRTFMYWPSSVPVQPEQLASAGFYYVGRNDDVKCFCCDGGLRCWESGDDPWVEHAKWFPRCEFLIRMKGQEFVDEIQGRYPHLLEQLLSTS
Experiment: BIR binding assay (FRET competition), cIAP1 BIR3
pIC50: −log10 of the molar value.
Catalogue of compounds with associated pIC50

| SMILES NOTATION | pIC50 |
| --- | --- |
| C[C@@H]1CN(CC(=O)N2CC(C)(C)c3[nH]c(=O)c(Cc4ccc(F)cc4)cc32)[C@@H](CN2CCO[C@H](C(=O)NCCCCCNC(=O)[C@@H]3CN(C[C@H]4CN[C@H](C)CN4CC(=O)N4CC(C)(C)c5[nH]c(=O)c(Cc6ccc(F)cc6)cc54)CCO3)C2)CN1 | 7.80 to 8.10 |
| C[C@@H]1CN(CC(=O)N2CC(C)(C)c3ncc(N(C)c4ccc(F)cc4)cc32)[C@@H](CN2CCO[C@H](COc3cccc(OC[C@@H]4CN(C[C@H]5CN[C@H](C)CN5CC(=O)N5CC(C)(C)c6ncc(N(C)c7ccc(F)cc7)cc65)CCO4)c3)C2)CN1 | 6.30 to 7.50 |
| C[C@@H]1CN(CC(=O)N2CC(C)(C)c3[nH]c(=O)c(Cc4ccccc4)cc32)[C@@H](CN2CCO[C@H](C(=O)NCc3ccc(CNC(=O)[C@@H]4CN(C[C@H]5CN[C@H](C)CN5CC(=O)N5CC(C)(C)c6[nH]c(=O)c(Cc7ccccc7)cc65)CCO4)cc3)C2)CN1 | 7.80 to 8.10 |
| C[C@@H]1CN(CC(=O)N2CC(C)(C)c3[nH]c(=O)c(Cc4ccc(F)cc4)cc32)[C@@H](CN2CCO[C@H](COc3ccc(-c4ccc(OC[C@@H]5CN(C[C@H]6CN[C@H](C)CN6CC(=O)N6CC(C)(C)c7[nH]c(=O)c(Cc8ccc(F)cc8)cc76)CCO5)cc4)cc3)C2)CN1 | 8.10 to 8.86 |
| C[C@@H]1CN(CC(=O)N2CC(C)(C)c3[nH]c(=O)c(Cc4ccc(F)cc4)cc32)[C@@H](CN2CCO[C@H](C(=O)NCC#CC#CCNC(=O)[C@@H]3CN(C[C@H]4CN[C@H](C)CN4CC(=O)N4CC(C)(C)c5[nH]c(=O)c(Cc6ccc(F)cc6)cc54)CCO3)C2)CN1 | 7.80 to 8.10 |
| C[C@@H]1CN(CC(=O)N2CC(C)(C)c3[nH]c(=O)c(Cc4ccc(F)cc4)cc32)[C@@H](CN2CCO[C@H](COc3ccc(Cl)c(OC[C@@H]4CN(C[C@H]5CN[C@H](C)CN5CC(=O)N5CC(C)(C)c6[nH]c(=O)c(Cc7ccc(F)cc7)cc65)CCO4)c3)C2)CN1 | 7.50 to 7.80 |
| C[C@@H]1CN(CC(=O)N2CC(C)(C)c3[nH]c(=O)c(Cc4ccc(F)cc4)cc32)[C@@H](CN2CCC(CNC(=O)c3ccc(C(=O)NCC4CCN(C[C@H]5CN[C@H](C)CN5CC(=O)N5CC(C)(C)c6[nH]c(=O)c(Cc7ccc(F)cc7)cc65)CC4)cc3)CC2)CN1 | 8.10 to 8.86 |
